Listed compounds paired with reported composite z-score
ASSAY PROTOCOL: probe aLefty1 binding on compound microarray – biochemical, small-molecule microarray, 635/667 nm fluorescence, primary screen (AID 1153);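 note: score merges spot fluorescence with signal-to-noise ratio from the scanned slide images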
ASSAY CONDITIONS: higher = more signal
Number, no unit, nothing else.

INSERT INTO results (compound, measured_number) VALUES
  ('C=CCNC(=O)[C@H]1[C@@H]2C(=O)O[C@@H](c3ccccc3)[C@@H](c3ccccc3)N2[C@@H](c2ccc(OCCO)cc2)[C@]12C(=O)Nc1ccccc12', 1.21),
  ('C=CCNC(=O)[C@H]1[C@@H]2C(=O)O[C@@H](c3ccccc3)[C@@H](c3ccccc3)N2[C@@H](c2ccccc2OCCO)[C@]12C(=O)N(C(=O)OCCOC)c1ccc(C#Cc3ccc(OC)cc3)cc12', 0.0114),
  ('CC1CC/C=C\[C@H]2OC34C=CCN(c5ccc6ccccc6c5)C(=O)[C@H]3N(C(C)CO)C(=O)[C@@H]4C2C(=O)O1 (stereo not given in full)', -0.0933),
  ('COC(=O)[C@]1(Cc2ccccc2)N=C(c2ccc(OCCCO)cc2)O[C@@H]1c1ccccc1CN=[N+]=[N-]', 0.25),
  ('COC(=O)[C@@]1(Cc2ccc(F)cc2)[C@H]2c3cc(C(=O)N4CCCC4)n(CCc4ccccn4)c3C[C@H]2CN1C(=O)c1ccccc1', 0.413),
  ('COC(=O)[C@@]1(Cc2ccc(OC)cc2)[C@H]2c3cc(C(=O)N4CCCC4)n(Cc4ccc(C(F)(F)F)nc4)c3C[C@H]2CN1C(=O)c1ccccc1', -0.0647);

Param item = NC(=O)NCC#Cc1ccc2c(c1)[C@]1(C(=O)N2)[C@H](c2ccc(OCCO)cc2)N2[C@H](c3ccccc3)[C@H](c3ccccc3)OC(=O)[C@H]2[C@@H]1C(=O)O ; retrieve measured composite z-score.
-0.0536

Param item = COc1ccc([Si](C)(C)[C@@H]2[C@@H](CC(=O)N(CCO)Cc3ccccc3)O[C@]3(C(=O)N(Cc4ccc(I)cc4)c4ccccc43)[C@H]2C)cc1 ; retrieve measured composite z-score.
1.03

Param item = C=CCN1C(=O)[C@]2(O[C@H](CCn3cc([C@H](O)c4ccccc4)nn3)[C@@H]([Si](C)(C)c3ccc(OC)cc3)[C@@H]2C)c2cc(NC(=O)c3ccc(OC)cc3)ccc21 ; retrieve measured composite z-score.
0.179

Param item = COC(=O)[C@@]1(Cc2ccc(F)cc2)[C@H]2c3cc(C(=O)N4CCCC4)n(Cc4ccccn4)c3C[C@H]2CN1C(=O)c1ccccc1 ; retrieve measured composite z-score.
0.0479
